Each recorded value in this set is attributed to patent US11149054B2.

ASSAYED TARGET: GluN2B glutamate receptors (Homo sapiens (Human), UniProt Q05586+Q13224)
Sequence (Q13224 27-1484, other chains not shown): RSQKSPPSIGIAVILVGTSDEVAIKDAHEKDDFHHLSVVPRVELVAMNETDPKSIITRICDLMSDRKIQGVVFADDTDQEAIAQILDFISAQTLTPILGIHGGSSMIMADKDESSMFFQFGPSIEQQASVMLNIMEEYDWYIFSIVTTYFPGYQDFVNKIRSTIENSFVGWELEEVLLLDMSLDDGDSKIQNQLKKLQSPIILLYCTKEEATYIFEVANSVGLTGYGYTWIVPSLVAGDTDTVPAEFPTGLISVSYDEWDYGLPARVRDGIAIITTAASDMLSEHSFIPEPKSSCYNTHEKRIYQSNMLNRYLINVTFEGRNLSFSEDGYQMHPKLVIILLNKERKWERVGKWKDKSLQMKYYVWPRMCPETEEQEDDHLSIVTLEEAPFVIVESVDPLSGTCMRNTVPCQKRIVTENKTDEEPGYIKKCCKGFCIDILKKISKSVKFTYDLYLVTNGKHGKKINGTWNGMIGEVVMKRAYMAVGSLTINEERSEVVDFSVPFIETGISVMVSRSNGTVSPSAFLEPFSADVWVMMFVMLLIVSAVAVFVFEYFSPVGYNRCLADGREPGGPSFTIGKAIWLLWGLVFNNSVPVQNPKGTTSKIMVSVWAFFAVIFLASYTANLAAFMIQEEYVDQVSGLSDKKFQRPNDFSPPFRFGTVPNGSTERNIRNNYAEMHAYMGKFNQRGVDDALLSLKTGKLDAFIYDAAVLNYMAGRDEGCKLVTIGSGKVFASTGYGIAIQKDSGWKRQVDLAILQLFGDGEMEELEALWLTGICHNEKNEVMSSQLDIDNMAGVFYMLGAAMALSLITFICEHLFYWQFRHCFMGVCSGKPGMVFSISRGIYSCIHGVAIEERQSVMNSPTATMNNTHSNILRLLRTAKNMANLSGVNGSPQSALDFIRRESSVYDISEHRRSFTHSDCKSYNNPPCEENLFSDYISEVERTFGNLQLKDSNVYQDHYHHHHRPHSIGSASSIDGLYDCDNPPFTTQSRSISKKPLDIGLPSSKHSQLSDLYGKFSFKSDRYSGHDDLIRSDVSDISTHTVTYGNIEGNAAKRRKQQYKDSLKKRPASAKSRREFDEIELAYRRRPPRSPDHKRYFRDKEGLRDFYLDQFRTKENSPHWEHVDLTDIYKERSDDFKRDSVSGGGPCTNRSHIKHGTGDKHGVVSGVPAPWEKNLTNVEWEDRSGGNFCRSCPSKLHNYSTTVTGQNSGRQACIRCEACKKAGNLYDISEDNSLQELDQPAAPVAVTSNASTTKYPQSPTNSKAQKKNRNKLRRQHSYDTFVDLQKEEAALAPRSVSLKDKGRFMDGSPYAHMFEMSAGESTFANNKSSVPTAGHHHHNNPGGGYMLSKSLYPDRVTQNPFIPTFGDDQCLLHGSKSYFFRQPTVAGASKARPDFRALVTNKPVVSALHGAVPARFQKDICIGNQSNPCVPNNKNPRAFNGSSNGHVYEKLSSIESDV
ASSAY SUMMARY: Whole-cell patch clamp of mammalian cells (Ionworks Barracuda), positive allosteric modulation, GluN2B
Format: cell-based
CONDITION PARAMETERS: % potentiation of current elicited with EC20 L-glutamate and 30 μM glycine; read-out: Avg Emax 2B (%)
Method: The measurements were performed using Ion Works Barracuda platform following this procedure: Electrophysiological Procedures: • a) Intracellular solution (mM): 50 mM CsCl, 90 mM CsF, 2 mM MgCl2, 5 mM EGTA, 10 mM HEPES. Adjust to pH 7.2 with CsOH. • b) Extracellular solution, HB-PS (composition in mM): NaCl, 137; KCl, 1.0; CaCl2), 5; HEPES, 10; Glucose, 10; pH adjusted to 7.4 with NaOH (refrigerated until use). • c) Holding potential: −70 mV, potential during agonist/PAM application: −40 mV. […]
The following compounds are listed with their measured Emax values.
VALUE KIND: Emax (%)

COMPOUND: CC[C@]1(O)CC[C@H]2[C@@H](CC[C@@H]3[C@@H]2CC[C@]2(C)[C@@H]([C@H](C)CCC(C)(C)O)CC[C@@H]32)C1
ASSAYED TARGET: GluN2B glutamate receptors (Homo sapiens (Human), UniProt Q05586+Q13224)
UNIT TEXT: %
MEASURED RESULT: 172

COMPOUND: CC[C@]1(O)CC[C@H]2[C@@H](CC[C@@H]3[C@@H]2CC[C@]2(C)[C@@H]([C@H](C)CCC4(O)CCC(C)(C)CC4)CC[C@@H]32)C1
ASSAYED TARGET: GluN2B glutamate receptors (Homo sapiens (Human), UniProt Q05586+Q13224)
UNIT TEXT: %
MEASURED RESULT: 55.9

COMPOUND: CC(C)C(O)CC[C@@H](C)[C@H]1CC[C@H]2[C@@H]3CC[C@H]4C[C@@](C)(O)CC[C@@H]4[C@H]3CC[C@]12C (some centres unmarked)
ASSAYED TARGET: GluN2B glutamate receptors (Homo sapiens (Human), UniProt Q05586+Q13224)
UNIT TEXT: %
MEASURED RESULT: 279

COMPOUND: CC[C@]1(O)CC[C@H]2[C@@H](CC[C@@H]3[C@@H]2CC[C@]2(C)[C@@H]([C@H](C)CCC4(O)CC4)CC[C@@H]32)C1
ASSAYED TARGET: GluN2B glutamate receptors (Homo sapiens (Human), UniProt Q05586+Q13224)
UNIT TEXT: %
MEASURED RESULT: 211

COMPOUND: CC(C)[C@H]1CC[C@@](O)(CC[C@@H](C)[C@H]2CC[C@H]3[C@@H]4CC[C@H]5C[C@](O)(C(F)(F)F)CC[C@]5(C)[C@H]4CC[C@]23C)CC1
ASSAYED TARGET: GluN2B glutamate receptors (Homo sapiens (Human), UniProt Q05586+Q13224)
UNIT TEXT: %
MEASURED RESULT: 242
